Test: soluble on expression in E. coli; label from the status in PepcDB or PDB records
Quantity name: soluble on expression in E. coli

# Polymer sequence, Value observed
data = [
    ("MALVEFLMETLDGLKGTDIVHFDVRGKSSITDNMIICTGTSSRQVSAMADNLITECKKAGFETFGEEGKNTADWIVVDLGQAIVHIMQRDAREMYQLEKLWALEHHHHHH", "not soluble"),
    ("MGSDKIHHHHHHMATVISMINLKGGVGKTTLTVAMAEFMAAEYGLKVLVVDLDPQTNATVALINELEWRKRNIRGQTLLNIFLDHLSKYQVFSLEEAIVHNVSNVNGGIEGLDLLPSSIDLIEVHDEFLQAIPSLPINPLHLLDDVLRAALSAYDIVLIDCPPDLGLICQNGLMISDYYIIPTIPDILSTYGIPQIINRIGRLQRENSISIQPLGLVISKYRQQSEIHKNQANLLKIHAPKAGYRQVFNTFIPEGNLAAMVMDYTLHFNSLREKYNYSKYYQIYKALTEEVLSCVQ", "not soluble"),
    ("MSLAQIKSLFATRLYHAPLSEHGPALDPAEFAASCYSIAEDDDAGQEWCEREGYPGYTSYASLTDLPWRFPIFADLVKSLDAHVAAFAEDLEFELDGKALRLEDIWINILPEGGVHGSHIHPHSVISGTTYVAMPEGTSALKLEDPRLPFMMAAPTRRKGAREELRTFRSVAPKVGDVLLWESWLRHEVPMNMAEEDRISVSFNYAWGEGHHHHHH", "soluble"),
    ("MGSDKIHHHHHHMAHQPVGTGSSIEVSVNPGHSRTSGVISHMSDTLRVAIVGDSDLQGAHVAISKSEFSPAADATDYLVLKDKPATISISRPSSQRVVGITTGSTTLIDFPEGTGSPFGINDMVTLRVIDQPYFEAAIGFGTVTKVWNAANIGGHYSTRITVNADTSGIKTDYVSTNWAELRSSFKVSSLGIGVGGKTGALYFQQVQITGE", "not soluble"),
    ("MKQEFSSIQFKAALLAAGLVLQVPAHANDGTIVITGAITDTTCIIEDPSDPNHTKVVQLPKISKSALKVKGDQAGRTPFTISLRDCPADLGNGVKVYFEPGPTTNYATGDLKAYKLAYATNPKATPLNSIVAATPATGVEIRISNLDDSKIPMGVDVTNQRAQGFNPVEQTGDTNKRTVTMRYLASYVKADGDIQASAITTYVGFSVVYP", "not soluble"),
    ("MKTIHIRELADWLDGALQAARFKDYCPNGLQVEGKAEIAHIITGVTASEALLRAAIERGADAVLVHHGWFWRNEDRRVLGPRRTRLALALGHELNLLAYHLPLDAHPQWGNNAQLARVLGLQAETGPDGAPRTCGADNLVWLGSAPGVQTVAQLQQRVAERLGRTPLVVGEPDRPVRRVAWCTGGAQGMLADAVDAGADAYITGEASESTVHLARETGVAFVGAGHHATERYGVQALGEAVARQFGIRVEFIDIDNPVLEHHHHHH", "not soluble"),
    ("MGSDKIHHHHHHMNILEKLFSLKRKVALVTGGGQGIGKAIAQALAAAGAAVLIMDINEETARRTVEEIKEKGGEADFYVGDVTKEEDCFGAVKKALDRWGKLDIGVNNAGIGDWCEAENYPVEKWKKVIDVNLVGVFLSAKAEFHAMKERKYGKIINIASMSGHIVNKPQKQTAYNASKAGVIHLTRSLAAEWAPYGIRVNSISPGYIRTPLIESPNVKDLVPLWLDMIPLGRLGEVDDLIGAAIFLASPASDYMTGHDLVIDGGYTVW", "not soluble"),
    ("MNEFEIGLMSYLGREKLEKLGKVKVGIAGAGGLGSNCALHLVRSGFKNLKIVDFDVVEPSNLNRQFFFLDQLGRPKVLALKENLARINPDVMIEAIQQKVDRNNAKQLFDDCDAVVEAFDKVECKTMMAEAFASSGKFFVCASGLAGWGNSDEIRIRKVHDRFYIVGDFVTGVKEGIPPISPRVNIAAAKQADLILSFFLDDADNTVNVNCQEGLEHHHHHH", "soluble"),
    ("MHHHHHHSSGRENLYFQGKLPEPQFYAEPHTYEEPGRAGRSFTREIEASRIHIEKIIGSGDSGEVCYGRLRVPGQRDVPVAIKALKAGYTERQRRDFLSEASIMGQFDHPNIIRLEGVVTRGRLAMIVTEYMENGSLDTFLRTHDGQFTIMQLVGMLRGVGAGMRYLSDLGYVHRDLAARNVLVDSNLVCKVSDFGLSRVLEDDPDAAYTTTGGKIPIRWTAPEAIAFRTFSSASDVWSFGVVMWEVLAYGERPYWNMTNRDVISSVEEGYRLPAPMGCPHALHQLMLDCWHKDRAQRPRFSQIVSVLDALIRSPESLRATATVS", "soluble"),
    ("MAKDIRVLLYYLYTPIENAEQFAADHLAFCKSIGLKGRILVADEGINGTVSGDYETTQKYMDYVHSLPGMEELWFKIDEENEQAFKKMFVRYKKEIVHLGLEDNDFDNDINPLETTGAYLSPKEFKEALLDKDTVVLDTRNDYEYDLGHFRGAIRPDIRNFRELPQWVRDNKEKFMDKRVVVYCTGGVRCEKFSGWMVREGYKDVGQLHGGIATYGKDPEVQGELWDGKMYVFDERIAVDVNHVNPTIVGKDWFDGTPCERYVNCGNPFCNRRILTSEENEDKYLRGCSHECRVHPRNRYVSKNELTQAEVIERLAAIGESLDQAATVLEHHHHHH", "soluble"),
    ("MGSDKIHHHHHHMSQATAKVNREVQAFLQDLKGKTIDHVFFVACGGSSAIMYPSKYVFDRESKSINSDLYSANEFIQRNPVQLGEKSLVILCSHSGNTPETVKAAAFARGKGALTIAMTFKPESPLAQEAQYVAQYDWGDEALAINTNYGVLYQIVFGTLQVLENNTKFEQAIEGLDQLQAVYEKALKQEADNAKQFAKAHEKESIIYTMASGANYGVAYSYSICILMEMQWIHSHAIHAGEYFHGPFEIIDESVPFIILLGLDETRPLEERALTFSKKYGKKLTVLDAASYDFTAIDDSVKGYLAPLVLNRVLRSYADELAEERNHPLSHRRYMWKVEY", "not soluble"),
]
